The measurements presented in this section are drawn from paper PMC3510010.

target_of_assay: T1, GLD-1(135-336) (Caenorhabditis elegans, UniProt Q17339 135-336)
T1 sequence: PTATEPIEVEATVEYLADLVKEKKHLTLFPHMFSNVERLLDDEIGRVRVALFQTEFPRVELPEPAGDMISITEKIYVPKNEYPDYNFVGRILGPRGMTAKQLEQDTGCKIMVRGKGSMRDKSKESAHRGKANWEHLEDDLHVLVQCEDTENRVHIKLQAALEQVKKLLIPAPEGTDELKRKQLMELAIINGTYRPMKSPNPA
assay_details: F-EMSA
metric_name: pKd
Reminder that pKd is minus the log10 of a molar concentration.

Recorded pKd of UUUUUCUUAUUCUAGACUAACCCUGUAAGCU (ssRNA) [∆3′ PRE] , please.
7.60

State the recorded pKd for this entry: UUUUUCUCCCUCUAGACUAAUAUUGUAAGCU (ssRNA) [∆5′ PRE]
7.48
